Data provenance is patent US20250163167A1.

target-system: T1, human IL-10 receptor (hIL-10R alpha and beta chains) on HEK-Blue IL-10 reporter cells (human, UniProt Q13651 22-578; Q08334 20-325)
T1 sequence 1: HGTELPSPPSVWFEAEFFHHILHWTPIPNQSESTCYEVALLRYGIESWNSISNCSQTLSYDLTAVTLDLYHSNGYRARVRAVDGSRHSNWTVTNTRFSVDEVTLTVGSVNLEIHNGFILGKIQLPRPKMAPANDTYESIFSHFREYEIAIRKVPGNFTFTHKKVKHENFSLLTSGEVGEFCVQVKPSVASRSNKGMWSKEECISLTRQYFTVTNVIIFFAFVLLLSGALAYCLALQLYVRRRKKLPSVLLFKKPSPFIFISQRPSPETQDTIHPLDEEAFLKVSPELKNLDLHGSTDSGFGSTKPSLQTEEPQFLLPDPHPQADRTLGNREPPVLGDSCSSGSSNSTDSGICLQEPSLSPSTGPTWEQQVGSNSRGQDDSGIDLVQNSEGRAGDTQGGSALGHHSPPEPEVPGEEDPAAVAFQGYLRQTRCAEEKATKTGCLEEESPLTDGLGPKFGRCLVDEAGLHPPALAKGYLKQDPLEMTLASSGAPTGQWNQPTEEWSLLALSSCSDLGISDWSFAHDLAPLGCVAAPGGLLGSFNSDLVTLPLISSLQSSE
T1 sequence 2: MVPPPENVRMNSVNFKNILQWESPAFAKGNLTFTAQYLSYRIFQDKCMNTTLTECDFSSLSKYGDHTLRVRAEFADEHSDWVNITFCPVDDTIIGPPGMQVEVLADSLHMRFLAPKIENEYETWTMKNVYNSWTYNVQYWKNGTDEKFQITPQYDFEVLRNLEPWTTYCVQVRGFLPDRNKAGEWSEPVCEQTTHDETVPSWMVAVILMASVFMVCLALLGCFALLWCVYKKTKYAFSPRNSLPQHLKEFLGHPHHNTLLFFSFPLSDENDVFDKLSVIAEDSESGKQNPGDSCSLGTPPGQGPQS
test: cell-based or functional assay
observed-property: Abs 630 (25 nM) (Abs 630)
Form entry: value (Abs 630) — number only.

Exam item: Look at this binder and give its reported Abs 630 (25 nM). IL10R binding molecule of SEQ ID NO: 337 (bispecific antibody) QVQLQESGGGSVEAGGSLRLSCAASGYTHSSYCMGWFRQAPGKEREGVAAIDVDGSTTYADSVKGRFTISKDNAKNTLYLQMNSLKPEDTGMYYCAAEFADCSSNYFLPPGAVRYWGQGTQVTVSSGGGSQVQLQESGGGSVQAGGSLRLSCTVSGYTYSSNCMGWFRQAPGKEREGVATIYTGGGNTYYADSVKGRFTISQDNAKNTVYLQMNNLKPEDTAMYYCAAEPLSRVYGGSCPTPTFDYWGQGTQVTVSSASHHHHHH
Marked response: 0.49
